measurement-description: Cytotoxicity against Wistar rat astrocytes assessed as cell growth inhibition measured after 72 hrs by SRB assay
Format: cell-based, Astrocyte
Output satisfied for records whose CC50 at 72 h is lower than 90 µM, not satisfied for records at or above 90 µM.

1. O=C(/C=C/c1ccc([N+](=O)[O-])o1)c1ccc(N2CCNCC2)cc1 :: satisfied
2. O=C(/C=C/c1ccc([N+](=O)[O-])o1)c1ccc(Br)cc1 :: satisfied
3. CCC(=O)Oc1cccc2ccc(/C=C/c3ccccc3[N+](=O)[O-])nc12 :: satisfied
4. O=C(/C=C/c1ccc([N+](=O)[O-])o1)c1cccc(Br)c1 :: satisfied
5. CSc1ccc(C(=O)/C=C/c2ccco2)cc1 :: not satisfied

Please turn your attention to the following entry.
**Q:** For this compound, is CC50 at 72 h lower than 90 µM? O=C(/C=C/c1ccc([N+](=O)[O-])o1)c1ccc(-n2ccnc2)cc1
**A:** satisfied

----------
measurement-description: Cytotoxicity against Wistar rat astrocytes assessed as cell growth inhibition measured after 72 hrs by SRB assay
Format: cell-based, Astrocyte
measure-name: CC50 at 72 h (µM)
State just the number; it will be interpreted in µM.

Previously resolved entries follow.
1) CSc1ccc(C(=O)/C=C/c2ccc([N+](=O)[O-])o2)cc1 :: 28.4
2) O=C(/C=C/c1ccc([N+](=O)[O-])s1)c1ccc(-n2ccnc2)cc1 :: 40.4

**Q:** Let me know recorded CC50 at 72 h for Cc1cccc(C(=O)/C=C/c2ccc([N+](=O)[O-])o2)c1 , thanks.
**A:** 52.2

**Q:** # return recorded CC50 at 72 h for input C[N+](=O)c1ccc(/C=C/C(=O)c2ccc(N3CCOCC3)cc2)o1
**A:** 75.8

**Q:** For the compound O=C(/C=C/c1ccc([N+](=O)[O-])o1)c1ccc(I)cc1 , report CC50 at 72 h.
**A:** 68.2

**Q:** Please give measured CC50 at 72 h of the following entry: O=C(/C=C/c1ccc([N+](=O)[O-])o1)c1ccc(N2CCCC2)cc1
**A:** 65.8

**Q:** Given the compound CCCCc1ccc(C(=O)/C=C/c2ccc([N+](=O)[O-])o2)cc1 , write its reported CC50 at 72 h.
**A:** 41.2

**Q:** Identify measured CC50 at 72 h associated with O=C(/C=C/c1ccc([N+](=O)[O-])o1)c1ccc(C2CCCCC2)cc1
**A:** 57.2

----------
Species on record: Rattus norvegicus
measurement-description: Inhibition of TrxR in rat liver assessed as reduction in TNB formation using DTNB and NADPH as substrate at 100 uM preincubated with enzyme for 15 mins followed by NADPH addition by absorbance based analysis
Format: tissue-based
Please enter MET where inhibition is greater than or equal to 60%, and NOT MET where it is lower.

Solved cases (5 shown):
1) O=C(/C=C/c1ccc([N+](=O)[O-])o1)c1ccc(N2CCNCC2)cc1 :: NOT MET
2) CC(C)(C)c1ccc(C(=O)/C=C/c2ccco2)cc1 :: NOT MET
3) O=C(/C=C/c1ccc([N+](=O)[O-])o1)c1cccc(Br)c1 :: MET
4) Cc1cccc(C(=O)/C=C/c2ccc([N+](=O)[O-])o2)c1 :: MET
5) CSc1ccc(C(=O)/C=C/c2ccc([N+](=O)[O-])o2)cc1 :: NOT MET

API: the following record is the query input.
**Q:** Answer whether inhibition of CCCCc1ccc(C(=O)/C=C/c2ccc([N+](=O)[O-])o2)cc1 is greater than or equal to 60%.
**A:** MET

----------
Test system: U-87 MG
measurement-description: Antiproliferative activity against human U87MG cells assessed as cell growth inhibition measured after 72 hrs by SRB assay
Assay type: functional, cell-based, U-87MG ATCC
Exam item: assign Yes to entries whose EC50 is below 6 µM and No to entries at or above 6 µM. Note that a value of exactly 6 µM receives No.

// below: answered compounds
1) O=C(/C=C/c1ccc([N+](=O)[O-])o1)c1ccc(N2CCNCC2)cc1 :: Yes
2) CCCCc1ccc(C(=O)/C=C/c2ccc([N+](=O)[O-])o2)cc1 :: Yes
3) O=C(/C=C/c1ccc([N+](=O)[O-])o1)c1ccc(I)cc1 :: Yes
4) COc1ccc(/C=C/C(=O)c2cccc(I)c2)cc1 :: No
5) Cc1cccc(C(=O)/C=C/c2ccc([N+](=O)[O-])o2)c1 :: Yes
6) O=C(/C=C/c1ccc([N+](=O)[O-])o1)c1ccc(N2CCCC2)cc1 :: No
7) O=C(/C=C/c1ccc([N+](=O)[O-])o1)c1ccc(C2CCCCC2)cc1 :: No
8) Cc1ccc(C(=O)/C=C/c2ccco2)cc1 :: No
9) O=C(/C=C/c1ccc([N+](=O)[O-])s1)c1ccc(-n2ccnc2)cc1 :: No
10) O=C(/C=C/c1ccc([N+](=O)[O-])o1)c1ccc(Br)cc1 :: No

**Q:** Please indicate whether the reported EC50 of O=C(/C=C/c1ccc([N+](=O)[O-])o1)c1cccc(Br)c1 is strictly below 6 µM.
**A:** No

**Q:** Given the entry CCC(=O)Oc1cccc2ccc(/C=C/c3ccccc3[N+](=O)[O-])nc12 , would its reported EC50 be below 6 µM?
**A:** No

**Q:** Determine whether this compound shows EC50 lower than 6 µM (ties excluded): CSc1ccc(C(=O)/C=C/c2ccc([N+](=O)[O-])o2)cc1
**A:** Yes

----------
Test system: U-87 MG
measurement-description: Antiproliferative activity against human U87MG cells assessed as cell growth inhibition measured after 72 hrs by SRB assay
Type: functional, cell-based, U-87MG ATCC
measure-name: pEC50
Answer as the number alone; pEC50 is minus log10 of concentration in mol/L.

**Q:** Supply pEC50 value. Item: O=C(/C=C/c1ccc([N+](=O)[O-])o1)c1ccc(-n2ccnc2)cc1
**A:** 4.87

**Q:** Please give measured pEC50 of the following entry: CCCCc1ccc(C(=O)/C=C/c2ccco2)cc1
**A:** 4.91

**Q:** Output measured pEC50 for this item: CSc1ccc(C(=O)/C=C/c2ccco2)cc1
**A:** 4.35

**Q:** Give pEC50 for the following compound: C[N+](=O)c1ccc(/C=C/C(=O)c2ccc(N3CCOCC3)cc2)o1
**A:** 5.01

**Q:** Return pEC50 for the following compound: CC(C)(C)c1ccc(C(=O)/C=C/c2ccco2)cc1
**A:** 4.49

----------
measurement-description: Inhibition of TrxR in rat liver assessed as reduction in TNB formation using DTNB and NADPH as substrate preincubated with enzyme for 15 mins followed by NADPH addition by absorbance based analysis
Type: tissue-based
measure-name: pIC50
Here pIC50 is given on a logarithmic scale as minus log10 of the concentration in mol/L.

1) Cc1cccc(C(=O)/C=C/c2ccc([N+](=O)[O-])o2)c1 :: 4.60

# context switch: different compound, same pIC50
**Q:** Quickly give me recorded pIC50 for CCCCc1ccc(C(=O)/C=C/c2ccc([N+](=O)[O-])o2)cc1
**A:** 4.60

----------
Quick reference for Ratio CC50/EC50 among some molecules
measurement-description: Selectivity index, ratio of CC50 for Wistar rat astrocytes to EC50 for human U-251 MG cells
I'd appreciate a reply containing only the number, no unit.

1. CCC(=O)Oc1cccc2ccc(/C=C/c3ccccc3[N+](=O)[O-])nc12 :: 5.4
2. O=C(/C=C/c1ccc([N+](=O)[O-])s1)c1ccc(-n2ccnc2)cc1 :: 4.3
3. O=C(/C=C/c1ccc([N+](=O)[O-])o1)c1ccc(I)cc1 :: 5.4
4. O=C(/C=C/c1ccc([N+](=O)[O-])o1)c1cccc(Br)c1 :: 6.1
5. O=C(/C=C/c1ccc([N+](=O)[O-])o1)c1ccc(N2CCNCC2)cc1 :: 2.6

**Q:** Look up and state reported Ratio CC50/EC50 for O=C(/C=C/c1ccc([N+](=O)[O-])o1)c1ccc(Br)cc1
**A:** 3.9

**Q:** Give the reported Ratio CC50/EC50 for this molecule. CCCCc1ccc(C(=O)/C=C/c2ccc([N+](=O)[O-])o2)cc1
**A:** 10.6

**Q:** # return recorded Ratio CC50/EC50 for input Cc1cccc(C(=O)/C=C/c2ccc([N+](=O)[O-])o2)c1
**A:** 22.7

----------
CC50 at 72 h reference
measurement-description: Cytotoxicity against Wistar rat astrocytes assessed as cell growth inhibition measured after 72 hrs by SRB assay
Assay type: cell-based, Astrocyte

1) Cc1ccc(C(=O)/C=C/c2ccco2)cc1 :: > 100 µM

**Q:** Report measured CC50 at 72 h; entry is CCCCc1ccc(C(=O)/C=C/c2ccco2)cc1
**A:** > 100 µM

**Q:** Using the record for COc1ccc(/C=C/C(=O)c2cccc(I)c2)cc1 , state its measured CC50 at 72 h.
**A:** > 100 µM
